- Test system: Penicillium italicum
- Procedure summary: Antimicrobial activity against Penicillium italicum RCMB 001018 at 5 mg/ml by agar diffusion technique
- Assay type: functional
- Stated conditions: read-out: DIZ
Answer each item with its documented zone of inhibition at 5000 µg/mL.
Numbers only, in mm.

# count of solved cases: 4
Nn1c(SCCCSc2nnc(-c3cccnc3)n2N)nnc1-c1cccnc1 :: 0
Oc1ccccc1/C=N\n1c(SCCSc2nnc(-c3cccnc3)n2/N=C\c2ccccc2O)nnc1-c1cccnc1 :: 1
Nn1c(SCCCCSc2nnc(-c3cccnc3)n2N)nnc1-c1cccnc1 :: 0
CN(C/C=C/C#CC(C)(C)C)Cc1cccc2ccccc12 :: 10

State the recorded zone of inhibition at 5000 µg/mL for every item in the following list.
1. S=c1[nH]nc(-c2cccnc2)n1/N=C\c1ccccc1OCCCCOc1ccccc1/C=N\n1c(-c2cccnc2)n[nH]c1=S
2. S=c1[nH]nc(-c2cccnc2)n1/N=C\c1ccccc1OCCOCCOCCOc1ccccc1/C=N\n1c(-c2cccnc2)n[nH]c1=S
3. OC1COc2ccccc2/C=N\n2c(nnc2-c2cccnc2)SCCCCSc2nnc(-c3cccnc3)n2/N=C\c2ccccc2OC1
4. O=C(N[C@H](CO)[C@H](O)c1ccc([N+](=O)[O-])cc1)C(Cl)Cl

Marked response:
1. 1
2. 6
3. 0
4. 10

State the recorded zone of inhibition at 5000 µg/mL for every item in the following list.
1. S=c1[nH]nc(-c2cccnc2)n1/N=C\c1ccccc1OCCCOc1ccccc1/C=N\n1c(-c2cccnc2)n[nH]c1=S
2. OC1COc2ccccc2/C=N\n2c(nnc2-c2cccnc2)SCCCSc2nnc(-c3cccnc3)n2/N=C\c2ccccc2OC1
3. C1=N\n2c(nnc2-c2cccnc2)SCCCCSc2nnc(-c3cccnc3)n2/N=C\c2ccccc2OCCOCCOCCOc2ccccc2/1
4. S=c1[nH]nc(-c2cccnc2)n1/N=C\c1ccccc1OCCOCCOc1ccccc1/C=N\n1c(-c2cccnc2)n[nH]c1=S
5. OC1COc2ccccc2CNn2c(nnc2-c2cccnc2)SCCCSc2nnc(-c3cccnc3)n2NCc2ccccc2OC1
6. Nn1c(SCCSc2nnc(-c3cccnc3)n2N)nnc1-c1cccnc1
7. Nn1c(-c2cccnc2)n[nH]c1=S

Marked response:
1. 0
2. 1
3. 0
4. 1
5. 0
6. 1
7. 1

These data points were gathered from ChEMBL document CHEMBL1629465.
